Data provenance: ChEMBL document CHEMBL4219225

- Method description: Solubility of the compound at pH 7.4
- Type: physicochemical
- Measurement setup: buffer
Quantity name: solubility (µM)

1: N#Cc1cnccc1COc1cnc(N2CCN(c3nnc(C(F)(F)F)o3)CC2)nc1
2: N#Cc1cnccc1COc1cnc(N2CCN(c3nc(C(F)(F)F)no3)CC2)nc1
3: N#Cc1cnccc1COc1cnc(N2CCN(c3noc(C(F)(F)F)n3)CC2)nc1
Prompt line: Parameters: sort_field (solubility), sort_dir (desc). Put the labels in the requested order and list them out.
Response line: 2, 1, 3

###

// values below are pIC50; system is Voltage-gated inwardly rectifying potassium channel KCNH2 (Homo sapiens)
Sequence (Q12809 whole entry): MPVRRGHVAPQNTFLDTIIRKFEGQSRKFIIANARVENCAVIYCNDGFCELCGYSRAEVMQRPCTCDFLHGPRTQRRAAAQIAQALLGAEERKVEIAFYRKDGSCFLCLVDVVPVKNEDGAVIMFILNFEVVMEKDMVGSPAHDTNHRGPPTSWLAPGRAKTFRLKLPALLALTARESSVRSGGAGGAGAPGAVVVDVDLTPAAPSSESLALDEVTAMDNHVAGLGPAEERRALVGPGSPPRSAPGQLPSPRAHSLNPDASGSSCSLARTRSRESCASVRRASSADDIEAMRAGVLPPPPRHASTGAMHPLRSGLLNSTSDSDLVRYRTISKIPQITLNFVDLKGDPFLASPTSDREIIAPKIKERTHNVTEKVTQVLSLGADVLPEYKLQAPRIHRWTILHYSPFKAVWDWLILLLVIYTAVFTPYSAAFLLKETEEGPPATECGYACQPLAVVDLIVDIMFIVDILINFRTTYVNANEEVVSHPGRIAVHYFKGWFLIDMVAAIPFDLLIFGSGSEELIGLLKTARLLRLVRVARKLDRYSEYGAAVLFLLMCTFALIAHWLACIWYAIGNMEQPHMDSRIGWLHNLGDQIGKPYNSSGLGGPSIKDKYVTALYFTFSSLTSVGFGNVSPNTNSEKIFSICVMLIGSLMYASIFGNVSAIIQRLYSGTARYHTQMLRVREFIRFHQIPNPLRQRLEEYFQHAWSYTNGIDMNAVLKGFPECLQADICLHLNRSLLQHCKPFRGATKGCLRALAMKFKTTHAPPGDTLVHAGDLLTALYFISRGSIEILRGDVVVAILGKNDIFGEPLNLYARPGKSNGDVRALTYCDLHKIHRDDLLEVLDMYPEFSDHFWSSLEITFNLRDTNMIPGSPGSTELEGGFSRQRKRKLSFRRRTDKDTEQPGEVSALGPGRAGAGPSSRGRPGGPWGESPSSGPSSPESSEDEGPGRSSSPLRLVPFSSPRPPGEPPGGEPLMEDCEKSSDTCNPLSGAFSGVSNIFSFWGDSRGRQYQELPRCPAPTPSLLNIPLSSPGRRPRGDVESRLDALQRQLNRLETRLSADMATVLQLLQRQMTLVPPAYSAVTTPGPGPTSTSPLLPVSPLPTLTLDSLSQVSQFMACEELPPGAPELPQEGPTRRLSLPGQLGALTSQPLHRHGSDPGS
Scale for pIC50: -log10 of concentration given in mol/L; no unit attached.

A selection of reference data follows.
Sample smiles	pIC50
N#Cc1cnccc1COc1cnc(N2CCN(c3nc(C(F)(F)F)no3)CC2)nc1	5.20
N#Cc1cnccc1COc1cnc(N2CCN(c3nnc(C(F)(F)F)o3)CC2)nc1	4.70

Prompt line: Form entry - test system: Voltage-gated inwardly rectifying potassium channel KCNH2 (Homo sapiens); read-out: pIC50; molecule: N#Cc1cnccc1COc1cnc(N2CCN(c3noc(C(F)(F)F)n3)CC2)nc1
Response line: 5.20

###

- Target desc: Glucose-dependent insulinotropic receptor (Homo sapiens, UniProt Q8TDV5)
- Sequence (Q8TDV5 whole entry): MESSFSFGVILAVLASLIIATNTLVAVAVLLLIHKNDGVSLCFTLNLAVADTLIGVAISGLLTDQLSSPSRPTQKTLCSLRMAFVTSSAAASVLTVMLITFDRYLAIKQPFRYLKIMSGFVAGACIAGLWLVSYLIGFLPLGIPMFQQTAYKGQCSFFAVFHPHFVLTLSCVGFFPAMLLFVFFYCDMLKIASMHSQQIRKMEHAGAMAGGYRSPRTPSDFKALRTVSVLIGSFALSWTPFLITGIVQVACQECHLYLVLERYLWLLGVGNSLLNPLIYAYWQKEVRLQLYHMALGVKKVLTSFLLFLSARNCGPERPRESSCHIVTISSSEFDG
- Method description: Agonist activity at GPR119 (unknown origin)
pEC50: −log10 of the molar value.
Quantity name: pEC50

1: N#Cc1cnccc1COc1cnc(N2CCN(c3nnc(C(F)(F)F)o3)CC2)nc1
2: N#Cc1cnccc1COc1cnc(N2CCN(c3noc(C(F)(F)F)n3)CC2)nc1
3: N#Cc1cnccc1COc1cnc(N2CCN(c3nc(C(F)(F)F)no3)CC2)nc1
Prompt line: Parameters: sort_field (pEC50), sort_dir (desc). Put the labels in the requested order and list them out.
Response line: 2, 3, 1
(2: 8.70, 3: 8.30, 1: 7.60)

###

- Method description: Apparent permeability in MDCK cells
- Assay type: ADME, cell-based, Canis lupus familiaris
- Measurement setup: dog
Quantity name: Papp (×10⁻⁶ cm/s)

P: Cc1nc(C)c(-c2ccc(-c3ccc([C@H](C)C(=O)O)cc3Cl)c(F)c2)nc1C(N)=O
Q: Cc1nc(C)c(-c2ccc(-c3ccc(CC(=O)O)cc3)c(Cl)c2)nc1C(N)=O
Prompt line: Just tell me: smaller Papp value, P or Q ? # reply format: chosen label
Response line: Q
(Q: 7.4 ×10⁻⁶ cm/s, P: 14 ×10⁻⁶ cm/s)
